# Tested on: COLO 205 colon
# assay.explanation: NCI tumour cell line growth inhibition, 48 h
Item-by-item account of TGI
// note: answer is a bare numeric in µM

molecule	TGI [µM]
Nc1ccc(S(=O)(=O)Nc2ccc(Nc3c4ccccc4nc4ccccc34)cc2)cc1	14.9
CC(C)c1c(O)ccc2c1CCC1C(C)(C)CCCC21C (stereo not given)	32
C=C(C)[C@@H]1CC[C@]2(C)[C@H](CC=C3[C@@H]4[C@@H](C)[C@H](C)CC[C@]4(C(N)=O)CC[C@]32C)[C@@]1(C)CCC#N	15.6

Consider the molecule Nc1nc2n[nH]nc2c(=O)[nH]1 . State its measured TGI.
24.3
